Target: LZK (Homo sapiens, UniProt O43283)
Construct: 10 nM LZK, catalytic domain, Carna Biosiences in assay buffer; purchased Carna Biosciences ('Carna Biosiences' [sic])
Sequence (O43283 168-409 limits assumed): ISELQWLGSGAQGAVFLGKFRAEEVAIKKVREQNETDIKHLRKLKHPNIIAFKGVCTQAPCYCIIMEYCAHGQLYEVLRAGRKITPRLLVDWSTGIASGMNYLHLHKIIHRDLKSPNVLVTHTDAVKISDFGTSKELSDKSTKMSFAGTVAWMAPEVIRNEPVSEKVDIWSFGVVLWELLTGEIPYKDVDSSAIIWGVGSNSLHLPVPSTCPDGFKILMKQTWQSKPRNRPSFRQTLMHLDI
Assay: LZK biochemical assay (TR-FRET, MKK7 phosphorylation)
Details: LZK catalytic domain, MKK7 substrate, 15 μM ATP
Description: LZK assay is a biochemical assay format designed to screen for inhibitors of LZK. Enzymatic activity of LZK is measured by monitoring phosphorylation of the physiological substrate MKK7 (MAP2K7, Dual specificity mitogen-activated protein kinase kinase 7). Phosphorylation is detected by a TR-FRET system whereby His-tagged MKK7 is labeled by a XL665-labeled anti-His antibody (FRET acceptor, emission 665 nm). […]
Measured log10(IC50) accompanies every entry in the list below.
METRIC NAME: log10(IC50) (log10 of the value in nM)

CC[C@H](C)NC(=O)c1cc(-c2cnn(C(c3ccc(C(F)(F)F)nc3)C(C)C)c2)cc2nc(N)nn12 (single isomer, unassigned) [Example I-105] ... 1.15
CC(CF)NC(=O)c1cc(-c2cnn(C(c3ccccc3)C(C)C)c2)cn2nc(N)nc12 (single isomer, unassigned) [Example I-139] ... 1.81
CC[C@H](C)NC(=O)c1cc(-c2cnn(Cc3ccc(C(F)(F)F)cc3)c2)cn2nc(N)nc12 (single isomer, unassigned) ... 1.60
CC[C@@H](c1ccc(F)cc1)n1cc(-c2cc(C(=O)NC(C)CF)n3nc(N)nc3c2)cn1 (mixture of isomers) [Example I-148] ... 1.51
CCC(c1ccc(C(F)(F)F)nc1)n1cc(-c2cc(C(=O)NC(C)CF)c3nc(N)nn3c2)cn1 (mixture of isomers) ... 1.40
CC[C@H](NC(=O)c1cc(-c2cnn(Cc3ccccc3)c2)cn2nc(N)nc12)C(F)(F)F (single isomer, unassigned) ... 2.52
CC[C@H](C)NC(=O)c1cc(-c2cnn(C(COC)c3ccccc3)c2)cn2nc(N)nc12 (single isomer, unassigned) [Example I-42] ... 1.57
CC[C@H](c1ccc(C(F)(F)F)nc1)n1cc(-c2cc(C(=O)N[C@@H](C)CC)n3nc(N)nc3c2)cn1 (single isomer, unassigned) ... 1.04
